Origin of the recorded values: the RNAGym collection of RNA variant scans (doi:10.7554/elife.90254)

Item-by-item account of self-cleavage
B1: OR4K15 (parent)
chain: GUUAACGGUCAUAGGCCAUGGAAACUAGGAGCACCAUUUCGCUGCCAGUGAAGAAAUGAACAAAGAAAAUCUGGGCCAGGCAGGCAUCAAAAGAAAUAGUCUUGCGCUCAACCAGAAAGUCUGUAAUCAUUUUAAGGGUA

Variants of: B1
Assay: self-cleavage, relative activity (ratio to wild type); higher = more cleavage; in vitro, sequencing; the parent is a self-cleaving ribozyme
Observation Type: self-cleavage

INSERT INTO assay_data (alteration, observation_type, value) VALUES
  ('A24C U70G', 'self-cleavage', 0.73),
  ('U3A A60U', 'self-cleavage', 1.71),
  ('A90G U130C', 'self-cleavage', 0.87),
  ('U43C A82G', 'self-cleavage', 0.36),
  ('A22G U100C', 'self-cleavage', 1.69),
  ('U19C A54C', 'self-cleavage', 1.2),
  ('A36G U57G', 'self-cleavage', 0.68),
  ('A11U U87A', 'self-cleavage', 1.75),
  ('U37G A59G', 'self-cleavage', 0.71),
  ('A23G A110G', 'self-cleavage', 0.11),
  ('A47U U97A', 'self-cleavage', 1.74),
  ('U9A A64G', 'self-cleavage', 1.1),
  ('G21A C85G', 'self-cleavage', 0.64),
  ('U103A U131C', 'self-cleavage', 0.45),
  ('A36G A111G', 'self-cleavage', 0.03),
  ('G29A A117G', 'self-cleavage', 1.77),
  ('U49C A68U', 'self-cleavage', 1.95),
  ('A47G A82U', 'self-cleavage', 0.07),
  ('A24U A51U', 'self-cleavage', 1.61),
  ('A64G C121G', 'self-cleavage', 2.89),
  ('A111G U139G', 'self-cleavage', 0.02),
  ('A36C A64G', 'self-cleavage', 2.21),
  ('A24G U97C', 'self-cleavage', 0.1),
  ('C45U A126G', 'self-cleavage', 0.97),
  ('A47G A78U', 'self-cleavage', 0.14),
  ('A36G G99A', 'self-cleavage', 0.74),
  ('G8A U120C', 'self-cleavage', 1.57),
  ('A96U U122C', 'self-cleavage', 1.54),
  ('A60G A89G', 'self-cleavage', 1.55),
  ('A23U A66G', 'self-cleavage', 1.16),
  ('U131C A134G', 'self-cleavage', 0.73),
  ('U39C U131C', 'self-cleavage', 1.05),
  ('A86U A129U', 'self-cleavage', 1.13),
  ('G44A G83A', 'self-cleavage', 1.24),
  ('G8A A96G', 'self-cleavage', 1.97),
  ('U19C A126G', 'self-cleavage', 1.48),
  ('A94G U130G', 'self-cleavage', 1.09),
  ('A67G U132A', 'self-cleavage', 1.42),
  ('U12C U49G', 'self-cleavage', 0.74),
  ('A18G G53U', 'self-cleavage', 1.66),
  ('A23G G74A', 'self-cleavage', 0.14),
  ('C45U U120C', 'self-cleavage', 1.06),
  ('U100A U108C', 'self-cleavage', 0.03),
  ('A18G A22U', 'self-cleavage', 1.95),
  ('A59U A60G', 'self-cleavage', 1.32);
